# PROTOCOL: folding enthalpy; higher = less favourable; fluorescence melt of hairpins on a sequencing array, two-state fit
# CONDITION_SET: sodium 0.088 M
Would you mind telling me the reported folding enthalpy of each entry?
Answers are plain numbers, in kcal/mol.

// input: 5 sequences below; output: folding enthalpy for each
1. GGTTAACCGAAAGGTACC (((..(((....))))))
2. GTTCGCGGAAACGTGAAC ((((.((....)).))))
3. GATCTTACTAAAGATC ((((((....))))))
4. GCGTATGGAAACATATGC ((.((((....)))).))
5. GATCTCAACGGAGATC ((((((....))))))

Reply:
-17.4
-37.7
-33
-46.8
-35

---

# PROTOCOL: folding enthalpy; higher = less favourable; fluorescence melt of hairpins on a sequencing array, two-state fit
# CONDITION_SET: sodium 0.088 M
ENDPOINT_NAME: folding enthalpy

GGGTTTGGAAACAAATCC ((.((((....)))).)): -166 kJ/mol
GCTTCACGAAAGTGTAGC (((.(((....))).))): -126 kJ/mol
CGTTTACGGAAACGTACG (((..(((....)))))): -80.2 kJ/mol
GCGAGGCGAAAGCATAGC ((.(.((....)).).)): -88.5 kJ/mol

// input: 3 sequences below; output: folding enthalpy for each
1. GATCCTCATTAGGATC ((((((....))))))
2. GCCAGTCGAAAGACGGGC (((.(((....))).)))
3. GATCCACGCTTGGATC ((((((....))))))

Reply:
["-141 kJ/mol", "-147 kJ/mol", "-161 kJ/mol"]

// input: 8 sequences below; output: folding enthalpy for each
1. GCGCTGCGAAAGCAAGGC ((..(((....)))..))
2. GGTGCTGCGAAAGCAACC (((..(((....))))))
3. GTGAAGCGAAAGCTACAC (((.(((....))).)))
4. CGCGGAAGTATCCGCG ((((((....))))))
5. GATCCAGTATTGGATC ((((((....))))))
6. GCGTGGCGAAAGCCCGGC ((..(((....)))..))
7. GATCGGTGGCCCGATC ((((((....))))))
8. TATCTGAAAAGATA (((((....)))))

Reply:
-67.1 kJ/mol
-60.4 kJ/mol
-126 kJ/mol
-159 kJ/mol
-175 kJ/mol
-62.5 kJ/mol
-157 kJ/mol
-48.2 kJ/mol

// input: 5 sequences below; output: folding enthalpy for each
1. GGAGCCGGAAACGGTTCC (((.(((....))).)))
2. GTGATAGGAAACCATCAC (((((.(....).)))))
3. GGTCGTCGAAAGACCACC (((.(((....))).)))
4. GATCAACAGATTGATC ((((((....))))))
5. GGCTTCGGAAACGAAGTC (.(((((....))))).)

Reply:
["-189 kJ/mol", "-146 kJ/mol", "-82.8 kJ/mol", "-126 kJ/mol", "-126 kJ/mol"]

---

# PROTOCOL: melting temperature; fluorescence melt of hairpins on a sequencing array, two-state fit, raised by 9.35 °C to match UV melts
# CONDITION_SET: sodium 0.088 M
Response field label: string, one of Criterion met (Tm strictly below 40 °C) or Criterion not met.

Examples with answers:
GCTATGCGAAAGCTTCGC ((.(.((....)).).)): Criterion not met
GCAAATACGAAAGTATGC (((..(((....)))))): Criterion met
GGCGCTACGAAAGTAGCC (((..(((....)))))): Criterion not met
GCTGCTCCGAAAGGAAGC (((..(((....)))))): Criterion not met
CCGAAGAAATTCGG (((((....))))): Criterion not met
GTGCTCCGAAAGGACAC (((.(((....)))))): Criterion not met
GAGTTACCGAAAGGTCTC (((..(((....)))))): Criterion met
GTTCTGGGAAACTAGGAC ((.((.(....).)).)): Criterion met

Query: Please let me know if GGATCAGAAATGATCC ((((((....)))))) shows Tm below 40 °C.
Reply: Criterion not met

Query: Please let me know if GTATGAGGAAACTCGTAC (((.(((....))).))) shows Tm below 40 °C.
Reply: Criterion not met
